Biological target: Neu5Ac(a2-3)Gal(b1-4)GlcNAc(b1-3)Gal(b1-4)GlcNAc(b1-3)[Neu5Ac(a2-3)Gal(b1-4)GlcNAc(b1-3)Gal(b1-4)GlcNAc(b1-6)]GalNAc
Test: glycan array binding signal (z-score within array); higher = stronger binding
Conditions: glycan notation: IUPAC condensed, linker removed
Shown is part of a subset that was picked to be rich in the strongest signals.
Kindly return Y if reported glycan array binding signal (z-score) is no lower than -0.09; return N if it is lower.

Example entries begin here.
# Binder, Assigned label
records = [
    ("Clec12b (Mus musculus), Q149M0 (protein) MSDEVTYATLMLQDSARVRGNQDGNNLRKEGHPAQSSLWRGAALSLMTLCLVLVTGLVTLATMFLQVSNDINSDSEKLSQLQKSIHPQQDNLSESLNSSRKSLTEESLQSQISALLERQEQMATKLCKEFLIHASDHKCNPCPKTWQWYGNSCYYFSINEEKSWSDSRKDCIDKNATLVKIDSTEERDLLQSQLSLTFSFFWLGLSWNSSGRNWLWEDGSFPPPTLFSDKELASFNGSRDCAYFERGNIYASRCSAEIPWICEKTASLVKTEDLD", "N"),
    ("HFR-3 (Triticum aestivum) (protein) MKGLLLCALALAFAAVTTHAQLQSCPTRCGKQADGMECPNNLCCSKDGYCGLGVDYCSAGAGCQSGACYDNKICGAQANGTLCRNNHCCSSGGRCGYGREYCSNGCQGGPCWADLKCGHLDNGKLCPNNLCCSQYGYCGLGPEFCGTGCQNGACSTDKPCGNKANGAPCTNNYCCSQYGSCGLGKDYCGTGCQNGACN", "Y"),
    ("UDA (Urtica dioica), P11218 (protein) MMMRFLSAVVIMSSAMAVGLVSAQRCGSQGGGGTCPALWCCSIWGWCGDSEPYCGRTCENKCWSGERSDHRCGAAVGNPPCGQDRCCSVHGWCGGGNDYCSGSKCQYRCSSSVRGPRVALSGNSTANSIGNVVVTEPLFDQMFSHRKDCPSQGFYSYHSFLVAAESFPAFGTIGDVATRKREVAAFLAHISQATSGERSDVENPHAWGLCHINTTTVTENDFCTSSDWPCAAGKKYSPRGPIQLTHNFNYGLAGQAIGEDLIQNPDLVEKDPIISFKTALWFWMSQHDNKPSCHDIVLNANSAANRIPNKGVIGNIISRAFGHDDFAVRSSSIGFYKRYCDMLGVSYGHDLKYWFDNTPSSEFQRIQMRVAA", "N"),
]

Here is the next item to consider.
# check: glycan array binding signal (z-score) of Nc3LysM-2 (protein) AHVLQARQSVSCDFATAANTGDTCASFAAAWGITEAAFAKLNPGVSCPGNLIAGSEYCVIGTVSTGAPTTTKAATTSTTPPTTTTTTKATTLSTSTTSVSPTGPSPQMPSITSTCNKFYQVQSGDGCWSIEQAQGVSASDFMAWNKAVDAQCDNLWLGYYVCVGVKGGSSPPPTTTTKPASSSAPTPQMPNTVSNCKKFHKVVSGDGCWAIEQAAGISASDFAKWNPYVDAACDNLWLGYYVCIGV is greater than or equal to -0.09
N
